system.tested: Sigma non-opioid intracellular receptor 1 (Cavia porcellus)
Sequence (Q60492 whole entry): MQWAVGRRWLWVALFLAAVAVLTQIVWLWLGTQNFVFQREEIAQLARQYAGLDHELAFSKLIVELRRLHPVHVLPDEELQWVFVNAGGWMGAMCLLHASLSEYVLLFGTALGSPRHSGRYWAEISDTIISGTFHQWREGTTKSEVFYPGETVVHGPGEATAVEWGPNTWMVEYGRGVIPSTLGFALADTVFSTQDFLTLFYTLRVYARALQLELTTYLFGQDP
assay.notes: Displacement of [3H]-(+)-pentazocine from sigma 1 receptor in guinea pig brain membranes after 2 hrs by scintillation counting

molecule | bound.type | Ki / nM
COC(=O)C[C@@H]1Cc2ccccc2[C@H](CCN2CCCC2)O1 (racemic) | > | 1000
CCCCCCCCN1CCC2(CC1)OC(CCO)Cc1ccccc12 (racemic) | = | 26
OCC[C@@H]1Cc2ccccc2[C@H](CCN2CCC(c3ccccc3)CC2)O1 (racemic) | = | 52
COC(=O)C[C@@H]1Cc2ccccc2[C@H](CN2CCCCC2)O1 (racemic) | = | 510
OCCC1Cc2ccccc2C2(CCN(Cc3ccccc3)CC2)O1 (racemic) | = | 20
